TARGET_OR_SYSTEM: BTK (Homo sapiens (Human), UniProt Q06187)
Sequence (Q06187 393-659): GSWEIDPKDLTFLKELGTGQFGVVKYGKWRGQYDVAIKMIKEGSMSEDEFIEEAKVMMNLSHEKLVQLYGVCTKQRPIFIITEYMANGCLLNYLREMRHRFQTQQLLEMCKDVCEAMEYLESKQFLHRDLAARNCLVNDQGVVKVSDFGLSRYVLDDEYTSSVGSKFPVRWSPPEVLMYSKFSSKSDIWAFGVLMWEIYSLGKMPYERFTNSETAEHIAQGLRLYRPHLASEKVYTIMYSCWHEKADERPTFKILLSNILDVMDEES
ASSAY_NAME: In vitro BTK kinase activity measured by trFRET
APPLIED_CONDITIONS: recombinant human catalytic domain (aa 393-659), 0.01 mM ATP; read-out: Btk enzyme IC50
Hi there, I'd appreciate the recorded IC50 for every entry that follows.

Find the recorded IC50 belonging to C=CC(=O)N1CC(c2cc(Nc3cc4n(n3)CCOC4)c3ncnn3c2)C1 [F.1.42] and report it. < 100 nM

Again, but for C=CC(=O)Nc1cccc(-c2cn3ncnc3c(Nc3ccc4c(c3)NC(=O)CCC4)n2)c1 [F.1.5] < 100 nM

Again, but for C=CC(=O)N1CCC(c2cn3ncnc3c(Nc3ccc(N4CCOCC4)nc3)n2)C1 (stereo not shown) [F.1.19] 100 to 1000 nM

Again, but for C=CC(=O)N1CC[C@@H](c2cn3ncnc3c(Nc3ccc(OC)c(OC)c3)n2)C1 [F.1.112] 1000 to 50000 nM

Again, but for C=CC(=O)N1CC[C@@H](c2cc(Nc3cc4n(n3)CCN(C)C4)c3ncnn3c2)C1 [F.1.39] < 100 nM

Again, but for C=CC(=O)N1CCC[C@H](c2cc(Nc3cc4n(n3)CCOC4)c3ncnn3c2)C1 (single isomer, unassigned) [Example 5] < 100 nM

Again, but for C=CC(=O)N1CCC(c2cn3ncnc3c(Nc3ccc4c(c3)NC(=O)CC4)n2)C1 (stereo not shown) [F.1.13] 100 to 1000 nM

Again, but for Cn1ccc(Nc2cc(C3CCN(C#N)C3)cn3ncnc23)n1 (stereo not shown) [I.1] 100 to 1000 nM

Again, but for C=CC(=O)Nc1ccccc1-c1cn2ncnc2c(NC23CC(C2)C3)n1 [F.1.3] 1000 to 50000 nM

Again, but for C=CC(=O)N1CC[C@H](c2cn3ncnc3c(Nc3cnn(C)c3)n2)C1 (single isomer, unassigned) [Example 6] < 100 nM

Again, but for C=CC(=O)N1CCC(c2cn3ncnc3c(Nc3cnn(C)c3)n2)C1 (stereo not shown) [F.1.22] < 100 nM

Again, but for C=CC(=O)N[C@@H]1CCC[C@H](c2cc(Nc3ccn(C)n3)c3ncnn3c2)C1 [Example F1.35] < 100 nM

Again, but for C=CC(=O)N[C@H]1CC[C@@H](c2cc(Nc3ccn(C)n3)c3ncnn3c2)C1 [Example F1.34] 100 to 1000 nM

Again, but for C=CC(=O)N1CCCC(c2cc(Nc3nc(C)no3)c3ncnn3c2)C1 (stereo not shown) [Example F1.32] 1000 to 50000 nM

Again, but for C=CC(=O)N[C@@H]1CC[C@H](c2cc(Nc3cc4n(n3)CCOC4)c3ncnn3c2)C1 (single isomer, unassigned) [Example 8 (1R,3S)] < 100 nM

Again, but for C=CC(=O)N1CCCC(c2cc(Nc3ccn(C)n3)c3ncnn3c2)C1 (stereo not shown) [F.1.21] 100 to 1000 nM
